system: SK-MEL-5; experiment: Cytotoxicity against human SK-MEL-5 cells expressing vacuolar ATPase; format: functional, cell-based
Assay Metric: IC50 (nM)
The figure you give is taken to be in nM; do not add the unit.

INPUT: Value lookup for IC50; key = C[C@H]1C/C=C/Cc2cccc(O)c2C(=O)O[C@@H](C/C=C/NC(=O)C#Cc2ccccc2)C[C@H]1O [SALIPHENYLHALAMIDE]
OUTPUT: 106

###

test system: PANC-1; assay: Cytotoxicity against human PANC1 cells expressing vacuolar ATPase; assay type: functional, cell-based
Assay Metric: IC50 (nM)
The figure you give is taken to be in nM; do not add the unit.

INPUT: Value lookup for IC50; key = C[C@H]1C/C=C/Cc2cccc(O)c2C(=O)O[C@@H](C/C=C/NC(=O)C#Cc2ccccc2)C[C@H]1O [SALIPHENYLHALAMIDE]
OUTPUT: 124

###

test system: HCT-116; assay: Cytotoxicity against human HCT116 cells expressing vacuolar ATPase; format: functional, cell-based
Assay Metric: IC50 (nM)
The figure you give is taken to be in nM; do not add the unit.

INPUT: Provide the documented IC50 with HCT-116 as the system for C[C@H]1C/C=C/Cc2cccc(O)c2C(=O)O[C@@H](C/C=C/NC(=O)C#Cc2ccccc2)C[C@H]1O [SALIPHENYLHALAMIDE]
OUTPUT: 69.3

###

tested on: A2058; assay: Cytotoxicity against human A2058 cells expressing vacuolar ATPase; assay type: functional, cell-based
Assay Metric: IC50 (nM)
The figure you give is taken to be in nM; do not add the unit.

INPUT: Provide the documented IC50 with A2058 as the system for C[C@H]1C/C=C/Cc2cccc(O)c2C(=O)O[C@@H](C/C=C/NC(=O)C#Cc2ccccc2)C[C@H]1O [SALIPHENYLHALAMIDE]
OUTPUT: 154

###

tested on: HOS; assay: Cytotoxicity against human HOS cells expressing vacuolar ATPase; type: functional, cell-based
Assay Metric: IC50 (nM)
The figure you give is taken to be in nM; do not add the unit.

INPUT: Provide the documented IC50 with HOS as the system for C[C@H]1C/C=C/Cc2cccc(O)c2C(=O)O[C@@H](C/C=C/NC(=O)C#Cc2ccccc2)C[C@H]1O [SALIPHENYLHALAMIDE]
OUTPUT: 48.8

###

test system: ASPC1; assay: Cytotoxicity against human AsPC1 cells expressing vacuolar ATPase; format: functional, cell-based
Assay Metric: pIC50
pIC50 here is simply -log10 of the concentration when that concentration is written in mol/L.

INPUT: Value lookup for pIC50; key = C[C@H]1C/C=C/Cc2cccc(O)c2C(=O)O[C@@H](C/C=C/NC(=O)C#Cc2ccccc2)C[C@H]1O [SALIPHENYLHALAMIDE]
OUTPUT: 7.12
